- Target entity: PTGER2 (EP2) (Homo sapiens (Human), UniProt P43116)
- Sequence (P43116 whole entry): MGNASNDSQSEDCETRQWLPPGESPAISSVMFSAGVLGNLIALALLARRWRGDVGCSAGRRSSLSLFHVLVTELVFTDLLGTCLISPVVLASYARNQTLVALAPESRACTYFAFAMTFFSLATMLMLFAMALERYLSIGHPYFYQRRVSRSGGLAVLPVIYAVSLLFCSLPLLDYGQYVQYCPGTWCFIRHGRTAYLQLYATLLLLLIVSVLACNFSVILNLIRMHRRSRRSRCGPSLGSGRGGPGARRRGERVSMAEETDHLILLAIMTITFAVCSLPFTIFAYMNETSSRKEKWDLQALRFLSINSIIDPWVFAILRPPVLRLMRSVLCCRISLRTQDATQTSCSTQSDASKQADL
- Assay name: hEP2 b-arrestin assay (PathHunter HEK 293 PTGER2 b-arrestin cells)
- Experimental parameters: antagonistic activity, beta-arrestin assay; read-out: hEP2 b-arr IC50
pIC50: −log10 of the molar value.
Classification field: enter 1.0 for pIC50 values not below 7, 0.0 for values below it.

Below are worked cases with known answers.
> print(dat)
                               smiles.entry  answer.label
1  CCOc1cc(-c2cc(NCCc3c(OC)cc4occc4c3C)ncn2)ccc1CC(=O)O           1.0
2  CCOc1cc(-c2cc(NCCc3cc4c(Cl)ccnc4cc3C)ncn2)sc1C(=O)O           1.0
3  CCn1cc(-c2cc(NCCc3cc(F)c4sccc4c3)ncn2)cc1C(=O)O           0.0
4  CCCc1cc(-c2cc(NCCc3cc(F)c4sccc4c3)ncn2)ccc1C(=O)NCC(C)(C)O           0.0

Problem: Does the molecule `Cn1[nH]c(=O)c2ccc(-c3cc(NCCc4ccc5cc[nH]c5c4)ncn3)cc21` have recorded pIC50 that is 7 or more?
Result: 0.0

Problem: Thanks! And `CCOc1cc(-c2cc(NCCc3ccc4sccc4c3)ncn2)sc1C(=O)O` ?
Result: 1.0

Problem: Quick one: `CCOc1cc(-c2cc(NCCc3cc(F)c4sccc4c3)ncn2)ccc1-c1cc(O)no1`
Result: 0.0

Problem: Do the same for `COC(=O)c1sc(-c2cc(NCCc3ccc4ccccc4c3C)ncn2)cc1O` please
Result: 0.0

Problem: And `CCOc1cc(-c2cc(NCCc3cc4c(cc3C#N)OCO4)ncn2)sc1C(=O)O` ?
Result: 1.0

----------
- Target entity: EP4 (Homo sapiens (Human))
- Assay name: hEP4 cAMP assay (BT549 breast cancer cells, HTRF cAMP)
- Format: cell-based
- Experimental parameters: antagonistic activity, PGE2 6 nM
Listing: IC50 of selected molecules

> print(dat)
                                   molecule  result
1  CCOc1cc(-c2cc(NCCc3cc4ccccc4cc3OC(C)C)ncn2)ccc1C(=O)O  509 nM
2  CCOc1cc(-c2cc(NCCc3ccc4sccc4c3C)ncn2)sc1C(=O)O   12 nM
3  CCOc1cc(-c2cc(NCCc3cc4c(cc3Cl)NCCO4)ncn2)sc1C(=O)O  144 nM

Problem: Please report the recorded IC50 for `CCOc1cc(-c2cc(NCCc3ccc4[nH]ccc4c3)ncn2)ccc1OCC(=O)O` .
Result: 289 nM

Problem: What about this molecule? CCOc1cc(-c2cc(NCCc3ccc4sccc4c3)ncn2)ccc1OC(C)C(=O)O (centres unmarked)
Result: 234 nM

----------
List of pIC50 values.
- Target entity: EP2 (Homo sapiens (Human))
- Assay name: hEP2 cAMP assay (SF295 glioblastoma cells, HTRF cAMP)
- Experimental parameters: antagonistic activity
Note on pIC50: it is the negative log10 of concentration, concentration in mol/L.

Answered cases to consult:
> print(dat)
                               smiles.entry               target.entity  result.number
1  CCOc1cc(-c2cc(NCCc3cc4c(cc3C#N)OCCO4)ncn2)sc1C(=O)O  EP2 (Homo sapiens (Human))           7.43
2  O=C(O)c1ccc(-c2cc(NCCc3ccc4c(c3)CCC4)ncn2)cc1OC1CCC1  EP2 (Homo sapiens (Human))           6.24
3  Cc1c(CCNc2cc(-c3ccc(C(=O)O)c(OC4CCC4)c3)ncn2)ccc2cccnc12  EP2 (Homo sapiens (Human))           6.11
4  CCOc1cc(-c2cc(NCCc3cc4cnccc4cc3F)ncn2)sc1C(=O)O  EP2 (Homo sapiens (Human))           6.08

Problem: Report pIC50 for `Cc1c(CCNc2cc(-c3ccc(C(=O)O)c(OCCO)c3)ncn2)ccc2ccccc12` please.
Result: 6.95

----------
- Target entity: PTGER4 (EP4) (Homo sapiens (Human), UniProt P35408)
- Sequence (P35408 whole entry): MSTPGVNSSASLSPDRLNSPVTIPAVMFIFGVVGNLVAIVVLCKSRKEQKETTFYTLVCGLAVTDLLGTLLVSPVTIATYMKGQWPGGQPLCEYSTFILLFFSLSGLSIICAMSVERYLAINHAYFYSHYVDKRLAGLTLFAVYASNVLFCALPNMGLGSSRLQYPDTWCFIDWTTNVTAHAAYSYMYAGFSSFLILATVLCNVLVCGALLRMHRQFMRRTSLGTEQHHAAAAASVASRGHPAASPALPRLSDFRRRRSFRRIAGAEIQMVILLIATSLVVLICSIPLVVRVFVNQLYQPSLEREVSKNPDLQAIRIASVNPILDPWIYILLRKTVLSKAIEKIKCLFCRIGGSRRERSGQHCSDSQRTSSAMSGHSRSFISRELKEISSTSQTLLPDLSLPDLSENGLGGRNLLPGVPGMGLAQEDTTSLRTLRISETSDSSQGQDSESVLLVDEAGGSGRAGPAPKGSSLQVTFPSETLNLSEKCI
- Assay name: cell-based
# reported pIC50; entries follow
Remember, pIC50 is on a log scale: it is -log10 of the molar concentration.

Some solved cases for reference:
> print(dat)
                               smiles.entry  result.number
1  CCOc1cc(-c2cc(NCCc3ccc4c(c3C)OCCO4)ncn2)ccc1C(=O)O           6.13
2  O=C(O)c1ccc(-c2cc(NCCc3ccc4scc(Cl)c4c3)ncn2)cc1OC1CCC1           7.18
3  CCSc1cc(-c2cc(NCCc3cc4c(cc3OC)OCCO4)ncn2)ccc1C(=O)O           6.75
4  CCSc1cc(-c2cc(NCCc3cc4ccoc4cc3OC)ncn2)ccc1C(=O)O           6.73

Shifting focus to the compound that follows.
Problem: Query: pIC50; subject: `C=C(C(=O)O)c1ccc(-c2cc(NCCc3cc4c(cc3OC)OCCO4)ncn2)cc1`
Result: 5.88

----------
- Target entity: PTGER4 (EP4) (Homo sapiens (Human))
- Assay name: cell-based
Recorded endpoint: IC50 (nM)
Answer with a number only, understood to be in nM.

Example entries begin here.
> print(dat)
                               smiles.entry  recorded.endpoint  unit.spec  result.number
1  CCOc1cc(-c2cc(NCCc3cc4c(cc3OC)OCCO4)ncn2)ccc1CC(=O)O               IC50         nM            179
2  CSc1cc(-c2cc(NCCc3cc(C)c4c(c3)OCCO4)ncn2)ccc1C(=O)O               IC50         nM           1510
3  CCc1cc(-c2cc(NCCc3ccc4c(c3C)OCCO4)ncn2)ccc1C(=O)O               IC50         nM            893
4  CCOc1cc(-c2cc(NCCc3ccc4ccccc4c3N)ncn2)sc1C(=O)O               IC50         nM             24
5  CCOc1cc(-c2cc(NCCc3cc(Cl)c4sccc4c3)ncn2)sc1C(=O)O               IC50         nM              9

Problem: Entry under review: `CCOc1cc(-c2cc(NCCc3cc4cccnc4cc3F)ncn2)sc1-c1nnn[nH]1` . Reported IC50?
Result: 4

Problem: Param item: `CCOc1cc(-c2cc(NCCc3cc(C)c4sccc4c3)ncn2)sc1C(=O)O`
Result: 19

----------
- Target entity: EP4 (Homo sapiens (Human))
- Assay name: hEP4 cAMP assay (BT549 breast cancer cells, HTRF cAMP)
- Format: cell-based
- Experimental parameters: antagonistic activity, PGE2 6 nM
Consider the following partition of reported IC50 into named classes: low interval = under 90 nM, middle interval = from 90 nM up to 200 nM, high interval = 200 nM and over

Illustrative cases are given below, each with its answer.
> print(dat)
                                   molecule     answer.label
1  COc1cc2ccoc2cc1CCNc1cc(-c2ccc(C(=O)O)c(OC3CCC3)c2)ncn1 [Ex 124]  middle interval
2  CCOc1cc(-c2cc(NCCc3ccc4ccccc4c3C)ncn2)ccc1OCCC(=O)O [Ex 134]     low interval

Problem: Consider CSc1cc(-c2cc(NCCc3ccc4c(c3)OCCO4)ncn2)ccc1C(=O)O [Ex 310] . To which IC50 class does it belong?
Result: high interval

Problem: Another molecule to check: CCOc1cc(-c2cc(NCCc3ccc4[nH]ccc4c3)ncn2)sc1C(=O)O [Ex 32]
Result: low interval

Problem: Check CCOc1cc(-c2cc(NCCc3cc4ccoc4cc3OC)ncn2)ccc1C(=O)O [Ex 151] too.
Result: middle interval

Problem: Proceed to CCOc1cc(-c2cc(NCCc3cc(F)c4cc(C)sc4c3OC)ncn2)sc1C(=O)O [Ex 94]
Result: low interval

Problem: Param item: CCOc1cc(-c2cc(NCCc3cc4c(cc3C#N)OCO4)ncn2)sc1C(=O)O [Ex 64]
Result: low interval

Problem: Likewise for CCOc1cc(-c2cc(NCCc3cc4ccccc4cc3OC(F)F)ncn2)ccc1OCC(=O)O [Ex 129] ?
Result: middle interval

Problem: Same question for CCOc1cc(-c2cc(NCCc3cc4c(Cl)ccnc4cc3C)ncn2)sc1C(=O)O [Ex 178] please.
Result: middle interval

Problem: Subsequent entry: CCOc1cc(-c2cc(NCCc3cc4c(cc3OC)OCCO4)ncn2)ccc1OC(C)C(=O)O (stereo not drawn) [Ex 201]
Result: high interval

Problem: Now consider CSc1cc(-c2cc(NCCc3ccc4ccoc4c3)ncn2)ccc1C(=O)O [Ex 250] and answer again.
Result: high interval

Problem: Entry C#Cc1c(CCNc2cc(-c3ccc(OCC(=O)O)c(OCC)c3)ncn2)ccc2ccccc12 [Ex 140] please
Result: middle interval

Problem: And for CCOc1cc(-c2cc(NCCc3c(C#N)cc4ccccc4c3F)ncn2)ccc1C(=O)O [Ex 73] ?
Result: low interval

Problem: For c1nc(NCCc2ccc3cc[nH]c3c2)cc(-c2ccc3[nH]ccc3c2)n1 [Ex 226] then?
Result: high interval

Problem: Field entry: CSc1cc(-c2cc(NCCc3ccc4c(c3)CCS4)ncn2)ccc1C(=O)O [Ex 138]
Result: middle interval

Problem: Note, next up: CCOc1cc(-c2cc(NCCc3ccc4ncoc4c3)ncn2)sc1C(=O)O [Ex 146]
Result: middle interval

Problem: And CCOc1cc(-c2cc(NCCc3cc4ccccc4cc3NC)ncn2)ccc1C(=O)O [Ex 312] ?
Result: high interval

src = patent US11839613B2
